Biological target: STK17B (human) (UniProt O94768)
Sequence (O94768 whole entry, looked up): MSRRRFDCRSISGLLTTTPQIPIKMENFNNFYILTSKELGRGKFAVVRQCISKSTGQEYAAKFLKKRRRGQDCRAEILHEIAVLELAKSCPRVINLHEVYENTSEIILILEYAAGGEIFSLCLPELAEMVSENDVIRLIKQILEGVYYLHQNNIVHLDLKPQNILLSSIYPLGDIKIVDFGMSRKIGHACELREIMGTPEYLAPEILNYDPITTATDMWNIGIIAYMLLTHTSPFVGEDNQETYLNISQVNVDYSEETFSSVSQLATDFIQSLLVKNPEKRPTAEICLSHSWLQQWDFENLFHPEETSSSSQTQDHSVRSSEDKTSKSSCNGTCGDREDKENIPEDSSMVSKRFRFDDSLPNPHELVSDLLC
Experiment: KINOMEscan competition binding
Details: compound 10.0 µM
RESULT_TYPE: kinase still bound, per cent of control
Quick note: number first, unit second.

Field: example entries. Status: answers known.
>  <MOLECULE>
CN1C(=O)c2ccccc2N(C)c2nc(Nc3ccc(N4CCC(O)CC4)cc3)ncc21

>  <kinase still bound, per cent of control>
79%

$$$$
>  <MOLECULE>
COc1cc(N2CCN(C)CC2)ccc1Nc1ncc2c(n1)N(C)c1ccccc1N(C)C2=O

>  <kinase still bound, per cent of control>
100%

$$$$
>  <MOLECULE>
N=C1NC(=O)/C(=C/c2c[nH]c(=O)c(-c3ccc(S(N)(=O)=O)cc3)c2)S1

>  <kinase still bound, per cent of control>
28%

$$$$
>  <MOLECULE>
N=C1NC(=O)/C(=C/c2ccc(-c3cccc4cc[nH]c34)o2)S1

>  <kinase still bound, per cent of control>
0.4%

$$$$
>  <MOLECULE>
COc1cc(N2CCN(C)CC2)ccc1Nc1ncc2c(n1)N(C)c1sccc1C(=O)N2C

>  <kinase still bound, per cent of control>
100%

$$$$
>  <MOLECULE>
O=C1NC(=O)/C(=C/c2ccc(-c3ccc(C(=O)Nc4ccc(N5CCNCC5)cc4)cc3)o2)S1

>  <kinase still bound, per cent of control>
0.65%

$$$$
>  <MOLECULE>
N=C1NC(=O)/C(=C/c2c[nH]c(=O)c(-c3ccc4cc[nH]c4c3)c2)S1

>  <kinase still bound, per cent of control>
13%

$$$$
>  <MOLECULE>
CS(=O)(=O)Nc1ccc(-c2ncc(/C=C3\SC(=N)NC3=O)s2)cc1

>  <kinase still bound, per cent of control>
24%

$$$$

## Task Query: kinase still bound, per cent of control; subject: `COc1cc(N2CCC(O)CC2)ccc1Nc1ncc2c(n1)N1CCc3cccc(c31)C(=O)N2C`
## Result 100%

## Task kinase still bound, per cent of control for `N=C1NC(=O)/C(=C/c2ccc(-c3ccc(C(=O)Nc4ccc(N5CCNCC5)cc4)cc3O)o2)S1` ?
## Result 0.6%

## Task Which kinase still bound, per cent of control reading was recorded for the molecule `CSC1=NC(=O)/C(=C/c2c[nH]c(=O)c(-c3ccc(NS(C)(=O)=O)cc3)c2)S1` ?
## Result 5%

## Task I have this molecule here, `COc1cc(C(N)=O)ccc1-c1ccc(/C=C2\SC(=N)NC2=O)o1` , and I need its recorded kinase still bound, per cent of control.
## Result 1.6%

## Task // kinase still bound, per cent of control lookup, key: COc1cc(C(=O)NC2CCC(O)CC2)ccc1Nc1ncc2c(n1)N(C1CCCC1)[C@@H]1CCC[C@@H]1C(=O)N2C (stereo partly specified)
## Result 0%

---

Target: UniProt:Q59H18
Sequence (Q59H18 whole entry, looked up): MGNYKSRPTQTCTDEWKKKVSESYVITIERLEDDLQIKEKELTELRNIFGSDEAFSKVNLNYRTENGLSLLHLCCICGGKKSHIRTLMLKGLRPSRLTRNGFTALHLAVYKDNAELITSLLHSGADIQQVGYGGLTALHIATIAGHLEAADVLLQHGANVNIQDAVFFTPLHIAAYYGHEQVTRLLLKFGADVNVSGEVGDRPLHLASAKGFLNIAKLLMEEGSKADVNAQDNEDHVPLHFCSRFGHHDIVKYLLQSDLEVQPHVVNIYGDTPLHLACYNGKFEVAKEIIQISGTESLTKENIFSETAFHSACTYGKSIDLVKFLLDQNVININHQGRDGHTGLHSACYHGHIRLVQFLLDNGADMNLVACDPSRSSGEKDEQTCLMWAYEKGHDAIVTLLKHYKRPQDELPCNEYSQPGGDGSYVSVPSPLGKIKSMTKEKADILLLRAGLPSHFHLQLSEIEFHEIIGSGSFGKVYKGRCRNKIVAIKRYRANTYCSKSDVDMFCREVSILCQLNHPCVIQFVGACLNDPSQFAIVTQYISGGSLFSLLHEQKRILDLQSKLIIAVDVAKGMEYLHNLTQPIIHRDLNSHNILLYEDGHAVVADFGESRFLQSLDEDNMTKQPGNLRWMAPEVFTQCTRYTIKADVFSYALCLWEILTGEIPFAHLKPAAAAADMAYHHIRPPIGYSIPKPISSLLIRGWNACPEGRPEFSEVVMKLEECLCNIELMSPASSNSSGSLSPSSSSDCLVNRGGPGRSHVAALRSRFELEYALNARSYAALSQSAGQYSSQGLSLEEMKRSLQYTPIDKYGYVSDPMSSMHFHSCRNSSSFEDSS
Experiment: KINOMEscan competition binding
Conditions: compound 10.0 µM
RESULT_TYPE: kinase still bound, per cent of control (%)
Kindly provide the numeric value in % only, without the unit symbol.

Below: 3 molecules and their reported kinase still bound, per cent of control.
>  <SMILES_STRING>
COc1cc(N2CCN(C)CC2)ccc1Nc1ncc2c(n1)Nc1ccccc1NC2=O

>  <UNITS_SYMBOL>
%

>  <NUMERIC_READOUT>
87

$$$$
>  <SMILES_STRING>
COc1cc(N2CCN(C)CC2)ccc1Nc1ncc2c(n1)N(C)c1ccccc1N(C)C2=O

>  <UNITS_SYMBOL>
%

>  <NUMERIC_READOUT>
100

$$$$
>  <SMILES_STRING>
O=C1NC(=O)/C(=C/c2c[nH]c(=O)c(-c3ccc(N4CCNCC4)nc3)c2)S1

>  <UNITS_SYMBOL>
%

>  <NUMERIC_READOUT>
96

$$$$

## Task Tell me reported kinase still bound, per cent of control for `CN1CCN(c2ccc(C(=O)Nc3ncc4c(n3)N(C)c3ccccc3C(=O)N4C)cc2)CC1` , tested with UniProt:Q59H18.
## Result 100

## Task Notebook entry, UniProt:Q59H18 assay: kinase still bound, per cent of control of `CN1C(=O)c2ccccc2N(C)c2nc(Nc3ccc(N4CCC(O)CC4)cc3)ncc21` = ?
## Result 100
